# Measured On: CYP3A4 (Homo sapiens)
# Sequence (P08684 whole entry): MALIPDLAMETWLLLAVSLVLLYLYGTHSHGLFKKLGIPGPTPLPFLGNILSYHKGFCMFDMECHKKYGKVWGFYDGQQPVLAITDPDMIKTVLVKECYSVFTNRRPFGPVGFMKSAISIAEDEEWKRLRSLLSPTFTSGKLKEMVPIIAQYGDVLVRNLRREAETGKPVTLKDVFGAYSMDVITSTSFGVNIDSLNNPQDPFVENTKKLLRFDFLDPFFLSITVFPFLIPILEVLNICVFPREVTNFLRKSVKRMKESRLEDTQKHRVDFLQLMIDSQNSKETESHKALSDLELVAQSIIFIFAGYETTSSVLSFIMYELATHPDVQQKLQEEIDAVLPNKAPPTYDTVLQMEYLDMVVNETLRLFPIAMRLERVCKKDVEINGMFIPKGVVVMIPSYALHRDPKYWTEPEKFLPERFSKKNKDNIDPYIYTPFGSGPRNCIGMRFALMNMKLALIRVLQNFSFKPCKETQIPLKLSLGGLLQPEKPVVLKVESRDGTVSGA
# Method Notes: Inhibition of CYP3A4 (unknown origin)-mediated midazolam metabolite conversion at 10 uM after 20 mins relative to control
# Assay type: ADME
# Run Parameters: probe midazolam
Value Kind: inhibition at 20 min, 10 µM

In [3]: df
Out[3]:
                               smiles_entry  experimental_value
0  O=C(Nc1cc(NS(=O)(=O)c2cccs2)cc(-c2csc(=O)[nH]2)c1)c1cccs1                  8%

Lab note: need inhibition at 20 min, 10 µM with CYP3A4 (Homo sapiens) for entry O=c1[nH]c(-c2cccc(NS(=O)(=O)c3cccs3)c2)cs1 , please look it up.
17%

---

# Measured On: Bromodomain-containing protein 4 (Homo sapiens)
# Method Notes: Displacement of FITC-labeled (+)-JQ1 from bromodomain BRD4(1) (unknown origin) expressed in Escherichia coli BL21(DE3) after 4 hrs by fluorescence anisotropy assay
Value Kind: pIC50
Quick note: pIC50 means taking -log10 of the concentration in moles per liter.

Worked examples follow.
>>> print(df.to_string())
                               smiles_entry                               measured_on  experimental_value
0  CCCC(=O)Nc1cc(NS(=O)(=O)c2cccs2)cc(-c2csc(=O)[nH]2)c1  Bromodomain-containing protein 4 (Homo sapiens)                6.10
1  COc1ccc(S(=O)(=O)Nc2cccc(-c3csc(=O)[nH]3)c2)cc1  Bromodomain-containing protein 4 (Homo sapiens)                5.36
2  O=C(CCc1ccccc1)Nc1cc(NS(=O)(=O)c2cccs2)cc(-c2csc(=O)[nH]2)c1  Bromodomain-containing protein 4 (Homo sapiens)                6.24
3  O=c1[nH]c(-c2cccc(NS(=O)(=O)c3cccs3)c2)cs1  Bromodomain-containing protein 4 (Homo sapiens)                5.39

Lab note: need pIC50 with Bromodomain-containing protein 4 (Homo sapiens) for entry O=C(CCC1CCCCC1)Nc1cc(NS(=O)(=O)c2cccs2)cc(-c2csc(=O)[nH]2)c1 , please look it up.
5.66

---

inhibition values for the molecules below.
# Measured On: Bromodomain-containing protein 4 (Homo sapiens, UniProt O60885)
# Method Notes: Displacement of FITC-labeled (+)-JQ1 from bromodomain BRD4(1) (unknown origin) expressed in Escherichia coli BL21(DE3) at 50 uM after 4 hrs by fluorescence anisotropy assay relative to control
State just the number; it will be interpreted in %.

>>> df
                               smiles_entry  experimental_value
0  O=C(Nc1cc(-c2csc(=O)[nH]2)ccc1NS(=O)(=O)Cc1ccccc1)C1CCCC1                20.2

// lookup inhibition for O=c1[nH]c(-c2cccc(NS(=O)(=O)c3cccc4cccnc34)c2)cs1
45.7

Now consider O=C(Cc1ccccc1)Nc1cccc(-c2csc(=O)[nH]2)c1 and answer again.
45.6

Now consider O=c1[nH]c(-c2ccc(NS(=O)(=O)c3cccs3)cc2)cs1 and answer again.
38.6

---

# Measured On: Bromodomain-containing protein 4 (Homo sapiens)
# Method Notes: Displacement of FITC-labeled (+)-JQ1 from bromodomain BRD4(1) (unknown origin) expressed in Escherichia coli BL21(DE3) after 4 hrs by fluorescence anisotropy assay
pIC50: −log10 of the molar value.
Use 5 as the dividing line for pIC50, with the line itself on the rule met side and lower values as rule not met.

                               smiles_entry   label_value
0                Nc1ccc(-c2csc(=O)[nH]2)cc1  rule not met
1      O=c1[nH]c(-c2cccc(NCCc3ccccc3)c2)cs1  rule not met
2  O=c1[nH]c(-c2cccc(NS(=O)(=O)Cc3ccccc3)c2)cs1      rule met

Alright, here's another molecule for you.
Does the reported pIC50 for Nc1cccc(-c2csc(=O)[nH]2)c1 fall at or above the 5 mark?
rule not met
